# TGT: D(2) dopamine receptor (Homo sapiens)
# PROTOCOL_DESCRIPTION: Antagonist activity at human Gi/o-coupled DRD2L expressed in CHOK1 cells assessed as inhibition in dopamine-induced beta-arrestin 2 recruitment at 20 uM incubated for 30 mins followed by dopamine addition and measured after 90 or 180 mins by pathhunter beta-arrestin assay relative to control
# Format: cell-based
MEASURED_PARAMETER: inhibition (%)
Your answer should be a plain number; it is taken to be in %.

Find the measured inhibition of CC[C@]12CCCN3CCc4c(n(c5ccccc45)[C@@](O)(C(=O)OC)C1)[C@@H]32 and report it.
-10

Find the measured inhibition of CC[C@@]1(CC(=O)NC2CCCC2)CCCN2CCc3c([nH]c4ccccc34)[C@@H]21 and report it.
98

Find the measured inhibition of COC(=O)[C@@H]1[C@H]2C[C@H]3c4[nH]c5ccccc5c4CCN3C[C@@H]2CC[C@@H]1O and report it.
102

Find the measured inhibition of CC[C@]12CCCN3CC[C@]4(C(=O)c5ccccc5N4C(=O)C1)[C@@H]32 and report it.
-5

Find the measured inhibition of CC[C@@]12C=C(C(=O)OC)n3c(c(c4ccccc43)CCN(/C=C/C(=O)OC)CCC1)[C@@H]2c1ccc(O)cc1 and report it.
11

Find the measured inhibition of CC[C@@]1(CC(=O)OC)CCCN2CC[C@]3(O)C(=Nc4ccccc43)[C@@H]21 and report it.
0

Find the measured inhibition of CC[C@@]12CCCN3CCc4c([nH]c5ccccc45)[C@]31N(Cc1cn(Cc3ccccc3)nn1)C(=O)C2 and report it.
15

====

# TGT: Prolactin-releasing peptide receptor (Homo sapiens)
# Sequence (P49683 whole entry): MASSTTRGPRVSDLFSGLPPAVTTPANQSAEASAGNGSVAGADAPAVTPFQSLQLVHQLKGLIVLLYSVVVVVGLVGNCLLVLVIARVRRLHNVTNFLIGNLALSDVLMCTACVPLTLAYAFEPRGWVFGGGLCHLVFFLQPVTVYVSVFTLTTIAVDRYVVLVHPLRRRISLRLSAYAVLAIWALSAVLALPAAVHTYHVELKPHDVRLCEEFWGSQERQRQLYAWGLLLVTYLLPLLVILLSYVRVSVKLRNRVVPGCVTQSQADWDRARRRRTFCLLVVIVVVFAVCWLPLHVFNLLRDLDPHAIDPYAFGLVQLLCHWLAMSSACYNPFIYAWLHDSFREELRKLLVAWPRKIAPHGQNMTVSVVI
# PROTOCOL_DESCRIPTION: Antagonist activity at human Gq-coupled PRLHR expressed in CHOK1 cells assessed as inhibition in prolactin releasing peptide (1 to 31)-induced beta-arrestin 2 recruitment incubated for 30 mins followed by prolactin releasing peptide (1 to 31) addition and measured after 90 or 180 mins by pathhunter beta-arrestin assay
MEASURED_PARAMETER: pIC50
For clarity, pIC50 is expressed as the negative log10 of concentration in mol/L.

Find the measured pIC50 of CC[C@]12C=C(C(=O)OC)n3c(c(CCNC(=O)c4ccc(Br)cc4)c4ccccc43)[C@H]1N(C#N)CCC2 and report it.
5.61

Find the measured pIC50 of CC[C@]12CCCN(C(=O)c3cccc(Br)c3)CCc3c(n(c4ccccc34)C(=O)C1)[C@@H]2OC and report it.
4.86

====

# TGT: C-C chemokine receptor type 8 (Homo sapiens)
# Sequence (P51685 whole entry): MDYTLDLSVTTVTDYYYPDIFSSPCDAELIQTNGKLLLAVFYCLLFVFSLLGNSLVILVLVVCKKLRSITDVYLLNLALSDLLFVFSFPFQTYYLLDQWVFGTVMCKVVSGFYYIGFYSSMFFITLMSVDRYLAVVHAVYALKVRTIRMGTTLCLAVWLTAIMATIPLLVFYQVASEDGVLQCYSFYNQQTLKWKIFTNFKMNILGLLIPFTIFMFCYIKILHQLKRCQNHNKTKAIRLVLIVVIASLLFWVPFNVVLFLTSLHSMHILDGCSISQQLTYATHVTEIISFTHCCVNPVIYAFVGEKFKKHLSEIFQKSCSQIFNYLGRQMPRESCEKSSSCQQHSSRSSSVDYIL
# PROTOCOL_DESCRIPTION: Antagonist activity at human CCR8 expressed in CHOK1 cells assessed as inhibition in CCL1-induced beta-arrestin 2 recruitment at 20 uM incubated for 30 mins followed by CCL1 addition and measured after 90 or 180 mins by pathhunter beta-arrestin assay relative to control
# Format: cell-based
MEASURED_PARAMETER: inhibition (%)
Your answer should be a plain number; it is taken to be in %.

Find the measured inhibition of CC[C@@]1(CC(=O)OC)CCCN2CC[C@]3(O)C(=Nc4ccccc43)[C@@H]21 and report it.
17

Find the measured inhibition of CC[C@]12CCCN3CC[C@]4(C(=O)c5ccccc5N4C(=O)C1)[C@@H]32 and report it.
6

Find the measured inhibition of COC(=O)[C@@H]1[C@H]2C[C@H]3c4[nH]c5ccccc5c4CCN3C[C@@H]2CC[C@@H]1O and report it.
5

Find the measured inhibition of CC[C@]12CCCN3CCc4c(n(c5ccccc45)[C@@](O)(C(=O)OC)C1)[C@@H]32 and report it.
8

Find the measured inhibition of CC[C@@]12CCCN3CCc4c([nH]c5ccccc45)[C@]31N(Cc1cn(Cc3ccccc3)nn1)C(=O)C2 and report it.
59

Find the measured inhibition of CC[C@@]12C=C(C(=O)OC)n3c(c(c4ccccc43)CCN(/C=C/C(=O)OC)CCC1)[C@@H]2c1ccc(O)cc1 and report it.
65

Find the measured inhibition of CC[C@@]1(CC(=O)NC2CCCC2)CCCN2CCc3c([nH]c4ccccc34)[C@@H]21 and report it.
28

====

# TGT: Cannabinoid receptor 1 (Homo sapiens, UniProt P21554)
# Sequence (P21554 whole entry): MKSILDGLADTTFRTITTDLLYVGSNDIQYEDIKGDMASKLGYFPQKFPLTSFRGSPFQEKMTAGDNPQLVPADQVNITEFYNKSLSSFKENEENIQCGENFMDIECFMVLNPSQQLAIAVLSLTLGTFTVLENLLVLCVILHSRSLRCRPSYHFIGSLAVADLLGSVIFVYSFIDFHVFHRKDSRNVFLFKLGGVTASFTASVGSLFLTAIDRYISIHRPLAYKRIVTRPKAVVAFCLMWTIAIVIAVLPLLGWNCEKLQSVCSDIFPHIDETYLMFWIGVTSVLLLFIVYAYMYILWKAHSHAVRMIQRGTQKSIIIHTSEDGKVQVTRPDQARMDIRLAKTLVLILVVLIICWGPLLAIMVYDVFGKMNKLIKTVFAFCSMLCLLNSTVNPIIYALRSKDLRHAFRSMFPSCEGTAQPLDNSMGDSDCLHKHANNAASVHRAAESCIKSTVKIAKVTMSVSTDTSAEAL
# PROTOCOL_DESCRIPTION: Antagonist activity at human Gi/o-coupled CNR1 expressed in CHOK1 cells assessed as inhibition in CP55940-induced beta-arrestin 2 recruitment at 20 uM incubated for 30 mins followed by CP55940 addition and measured after 90 or 180 mins by pathhunter beta-arrestin assay relative to control
# Type: cell-based
# inhibition >= 30% gives yes (1), anything below gives no (0)

Is it the case that CC[C@@]12CCCN3CCc4c([nH]c5ccccc45)[C@]31N(Cc1cn(Cc3ccccc3)nn1)C(=O)C2 has inhibition reaching or exceeding 30%?
yes (1)

Is it the case that CC[C@@]1(CC(=O)OC)CCCN2CC[C@]3(O)C(=Nc4ccccc43)[C@@H]21 has inhibition reaching or exceeding 30%?
no (0)

Is it the case that CC[C@@]12C=C(C(=O)OC)n3c(c(c4ccccc43)CCN(/C=C/C(=O)OC)CCC1)[C@@H]2c1ccc(O)cc1 has inhibition reaching or exceeding 30%?
no (0)

Is it the case that CC[C@]12CCCN3CCc4c(n(c5ccccc45)[C@@](O)(C(=O)OC)C1)[C@@H]32 has inhibition reaching or exceeding 30%?
no (0)

Is it the case that CC[C@]12CCCN3CC[C@]4(C(=O)c5ccccc5N4C(=O)C1)[C@@H]32 has inhibition reaching or exceeding 30%?
no (0)

Is it the case that COC(=O)[C@@H]1[C@H]2C[C@H]3c4[nH]c5ccccc5c4CCN3C[C@@H]2CC[C@@H]1O has inhibition reaching or exceeding 30%?
yes (1)

Is it the case that CC[C@@]1(CC(=O)NC2CCCC2)CCCN2CCc3c([nH]c4ccccc34)[C@@H]21 has inhibition reaching or exceeding 30%?
no (0)

====

# TGT: Orexin receptor type 2 (Homo sapiens)
# Sequence (O43614 whole entry): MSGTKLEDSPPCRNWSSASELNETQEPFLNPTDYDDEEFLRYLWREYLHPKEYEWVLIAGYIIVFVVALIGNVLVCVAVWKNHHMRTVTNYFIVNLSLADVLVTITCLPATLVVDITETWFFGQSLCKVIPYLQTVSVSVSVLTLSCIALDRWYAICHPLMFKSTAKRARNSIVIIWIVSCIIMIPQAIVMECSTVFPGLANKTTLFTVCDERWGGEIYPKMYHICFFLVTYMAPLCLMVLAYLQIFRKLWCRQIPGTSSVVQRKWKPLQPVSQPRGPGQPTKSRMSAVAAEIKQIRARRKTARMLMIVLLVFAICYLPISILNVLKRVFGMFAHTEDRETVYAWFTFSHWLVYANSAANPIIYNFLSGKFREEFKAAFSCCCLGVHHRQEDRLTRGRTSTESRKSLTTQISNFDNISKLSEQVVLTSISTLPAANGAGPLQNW
# PROTOCOL_DESCRIPTION: Antagonist activity at human Gq-coupled HCRTR2 expressed in CHOK1 cells assessed as inhibition in Orexin A-induced beta-arrestin 2 recruitment incubated for 30 mins followed by Orexin A addition and measured after 90 or 180 mins by pathhunter beta-arrestin assay
MEASURED_PARAMETER: IC50 (nM)
Your answer should be a plain number; it is taken to be in nM.

Find the measured IC50 of CC[C@@]12CCCN3CCc4c([nH]c5ccccc45)[C@]31N(Cc1cn(Cc3ccccc3)nn1)C(=O)C2 and report it.
2260

====

# TGT: Glucose-dependent insulinotropic receptor (Homo sapiens) (UniProt Q8TDV5)
# Sequence (Q8TDV5 whole entry): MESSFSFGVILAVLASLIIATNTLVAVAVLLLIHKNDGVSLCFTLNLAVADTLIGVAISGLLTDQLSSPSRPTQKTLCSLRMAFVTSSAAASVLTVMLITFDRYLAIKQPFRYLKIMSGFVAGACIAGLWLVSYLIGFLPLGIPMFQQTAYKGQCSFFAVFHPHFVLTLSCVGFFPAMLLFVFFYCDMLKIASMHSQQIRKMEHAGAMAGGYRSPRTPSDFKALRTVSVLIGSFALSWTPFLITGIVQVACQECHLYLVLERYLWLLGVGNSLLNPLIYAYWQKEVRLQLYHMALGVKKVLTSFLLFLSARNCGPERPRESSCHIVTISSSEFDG
# PROTOCOL_DESCRIPTION: Antagonist activity at human GPR119 assessed as inhibition in oleoylethanolamide-induced beta-arrestin 2 recruitment at 20 uM incubated for 30 mins followed by oleoylethanolamide addition and measured after 90 or 180 mins by pathhunter beta-arrestin assay relative to control
What inhibition was measured for each of the following?
Dear colleague, please send the value followed by its unit.

Find the measured inhibition of CC[C@@]12CCCN3CCc4c([nH]c5ccccc45)[C@]31N(Cc1cn(Cc3ccccc3)nn1)C(=O)C2 and report it.
30%

Find the measured inhibition of CC[C@@]1(CC(=O)OC)CCCN2CC[C@]3(O)C(=Nc4ccccc43)[C@@H]21 and report it.
-2%

Find the measured inhibition of CC[C@@]1(CC(=O)NC2CCCC2)CCCN2CCc3c([nH]c4ccccc34)[C@@H]21 and report it.
2%

Find the measured inhibition of CC[C@]12CCCN3CCc4c(n(c5ccccc45)[C@@](O)(C(=O)OC)C1)[C@@H]32 and report it.
3%

Find the measured inhibition of CC[C@@]12C=C(C(=O)OC)n3c(c(c4ccccc43)CCN(/C=C/C(=O)OC)CCC1)[C@@H]2c1ccc(O)cc1 and report it.
35%

Find the measured inhibition of COC(=O)[C@@H]1[C@H]2C[C@H]3c4[nH]c5ccccc5c4CCN3C[C@@H]2CC[C@@H]1O and report it.
8%

Find the measured inhibition of CC[C@]12CCCN3CC[C@]4(C(=O)c5ccccc5N4C(=O)C1)[C@@H]32 and report it.
5%

====

# TGT: UniProt:P21554
# PROTOCOL_DESCRIPTION: Antagonist activity at human Gi/o-coupled CNR1 expressed in CHOK1 cells assessed as inhibition in CP55940-induced beta-arrestin 2 recruitment incubated for 30 mins followed by CP55940 addition and measured after 90 or 180 mins by pathhunter beta-arrestin assay
MEASURED_PARAMETER: IC50

Look up and report measured IC50 (UniProt:P21554) for the following compound: CC[C@]12CCCN(C(=O)c3cccc(Br)c3)CCc3c(n(c4ccccc34)C(=O)C1)[C@@H]2OC
4.95 µM

====

What inhibition was measured for each of the following?
# TGT: Neuropeptide S receptor (Homo sapiens) (UniProt Q6W5P4)
# Sequence (whole entry): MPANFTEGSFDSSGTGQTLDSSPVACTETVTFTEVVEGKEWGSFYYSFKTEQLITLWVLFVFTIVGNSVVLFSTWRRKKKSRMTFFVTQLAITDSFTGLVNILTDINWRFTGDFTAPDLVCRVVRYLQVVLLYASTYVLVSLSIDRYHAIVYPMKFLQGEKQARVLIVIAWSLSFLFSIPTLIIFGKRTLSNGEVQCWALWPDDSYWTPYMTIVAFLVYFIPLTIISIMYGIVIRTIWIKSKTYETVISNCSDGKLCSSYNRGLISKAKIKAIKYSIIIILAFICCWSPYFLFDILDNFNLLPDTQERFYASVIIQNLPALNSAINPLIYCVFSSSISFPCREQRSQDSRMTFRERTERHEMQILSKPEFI
# PROTOCOL_DESCRIPTION: Antagonist activity at human Gq-coupled NPSR1b expressed in human U2OS cells assessed as inhibition in neuropeptide S-induced beta-arrestin 2 recruitment at 20 uM incubated for 30 mins followed by neuropeptide S addition and measured after 90 or 180 mins by pathhunter beta-arrestin assay relative to control
# Assay type: cell-based

Find the measured inhibition of CC[C@]12CCCN3CC[C@]4(C(=O)c5ccccc5N4C(=O)C1)[C@@H]32 and report it.
-10%

Find the measured inhibition of COC(=O)[C@@H]1[C@H]2C[C@H]3c4[nH]c5ccccc5c4CCN3C[C@@H]2CC[C@@H]1O and report it.
-3%

Find the measured inhibition of CC[C@@]12CCCN3CCc4c([nH]c5ccccc45)[C@]31N(Cc1cn(Cc3ccccc3)nn1)C(=O)C2 and report it.
30%

Find the measured inhibition of CC[C@@]12C=C(C(=O)OC)n3c(c(c4ccccc43)CCN(/C=C/C(=O)OC)CCC1)[C@@H]2c1ccc(O)cc1 and report it.
24%

Data credit: ChEMBL document CHEMBL4342456
